measured on: T1, Insulin-like Growth Factor II (IGF-II), recombinant human (human, UniProt P01344 25-91, biotinyl group (site not stated) when immobilised for SPR; not biotinylated as SPR analyte or in ITC)
T1 construct: mature; Bought as Biotinyl-IGF-II from GroPep for immobilisation on streptavidin chips; also called IGF2; Biotinyl-IGF-II
experiment: SPR, steady-state KD relative to wild type domain 11
Property: Relative Affinity; scope: individual binders

Below, each entry is followed by its recorded Relative Affinity result.
IGF2R domain 11 with G at position 1544 (receptor, Secreted from Pichia pastoris; also called E1544G) NEHDDCQVTNPSTGHLFDLSSLSGRAGFTAAYSGKGLVYMSICGENENCPPGVGACFGQTRISVGKANKRLRYVDQVLQLVYKDGSPCPSKSGLSYKSVISFVCRPEAGPTNRPMLISLDKQTCTLFFSWHTPLACEQATHHHHHH | 0.57 fold vs wild type domain 11
IGF2R domain 11 E1544A (receptor, Secreted from Pichia pastoris) NEHDDCQVTNPSTGHLFDLSSLSGRAGFTAAYSAKGLVYMSICGENENCPPGVGACFGQTRISVGKANKRLRYVDQVLQLVYKDGSPCPSKSGLSYKSVISFVCRPEAGPTNRPMLISLDKQTCTLFFSWHTPLACEQATHHHHHH | 2.79 fold vs wild type domain 11
IGF2R domain 11 with I at position 1544 (receptor, Secreted from Pichia pastoris; also called E1544I) NEHDDCQVTNPSTGHLFDLSSLSGRAGFTAAYSIKGLVYMSICGENENCPPGVGACFGQTRISVGKANKRLRYVDQVLQLVYKDGSPCPSKSGLSYKSVISFVCRPEAGPTNRPMLISLDKQTCTLFFSWHTPLACEQATHHHHHH | 2.43 fold vs wild type domain 11
IGF2R domain 11 with M at position 1544 (receptor, Secreted from Pichia pastoris; also called E1544M) NEHDDCQVTNPSTGHLFDLSSLSGRAGFTAAYSMKGLVYMSICGENENCPPGVGACFGQTRISVGKANKRLRYVDQVLQLVYKDGSPCPSKSGLSYKSVISFVCRPEAGPTNRPMLISLDKQTCTLFFSWHTPLACEQATHHHHHH | 2.75 fold vs wild type domain 11

Note: attention shifts to another entry.
[in] Requested read-out: Relative Affinity. Entry: IGF2R domain 11 with H at position 1544 (receptor, Secreted from Pichia pastoris; also called E1544H) NEHDDCQVTNPSTGHLFDLSSLSGRAGFTAAYSHKGLVYMSICGENENCPPGVGACFGQTRISVGKANKRLRYVDQVLQLVYKDGSPCPSKSGLSYKSVISFVCRPEAGPTNRPMLISLDKQTCTLFFSWHTPLACEQATHHHHHH
[out] 3.07 fold vs wild type domain 11

Taken from patent US20130071366A1.
